assay_notes: refractive index (Na D-line) (dimensionless)
test_parameters: 293.15 K; 101.33 kPa; Liquid
result_type: refractive index

* CCCCCCCCCCCC [dodecane] | 1.421
* CCCCCCCCC [nonane] | 1.404
* CCCCCC [hexane] | 1.3759
* COc1ccccc1 [anisole] | 1.5161
* CCCCCCCC [octane] | 1.3965
* CCCCCCCCCC [decane] | 1.4148
* CCCCCCC [heptane] | 1.3872

###

test_parameters: 303.15 K; 101 kPa; Liquid
Numbers after ± are expanded uncertainties.
result_type: mass density

- CCCCCCCCCCCC [dodecane]: 741.52 ± 0.78 kg/m3
- CCCCCCC [heptane]: 675.5 ± 0.88 kg/m3
- COc1ccccc1 [anisole]: 984.42 ± 0.53 kg/m3
- CCCCCCCC [octane]: 694.56 ± 0.85 kg/m3
- CCCCCC [hexane]: 650.42 ± 0.93 kg/m3
- CCCCCCCCCC [decane]: 722.36 ± 0.81 kg/m3
- CCCCCCCCC [nonane]: 709.81 ± 3 kg/m3

###

Measured mass density values are reported for all entries that follow.
test_parameters: 293.15 K; 101 kPa; Liquid
result_type: mass density (kg/m3)

• CCCCCCCC = 702.61
• CCCCCCCCCCCC = 748.78
• CCCCCCCCCC = 729.91
• CCCCCCCCC = 717.59
• CCCCCC = 659.5
• COc1ccccc1 = 993.81
• CCCCCCC = 683.96
